// data source = ChEMBL document CHEMBL1158877

IC50 values for the compounds below.
Assay: Inhibition of Na+/K+-ATPase

smiles: CC1(C)CCC[C@]2(C)[C@@H](C=O)C(C=O)=CC[C@@H]12
measure-unit: µM
IC50: 82
--
smiles: CC(=O)O[C@@H]1OC(=O)C2=C1[C@@]1(C)CCCC(C)(C)[C@@H]1CC2
measure-unit: µM
IC50: 98
--
smiles: CC1(C)CCC[C@]2(C)[C@H]3C(=O)OC[C@@H]3CC[C@@H]12
measure-unit: µM
IC50: 45

====

Assay: Inhibition of Na+/K+-ATPase
The source made the active and inactive calls. The rule behind the calls is not given here.

smiles: CC1(C)CCC[C@]2(C)/C(=C/O)C(=O)CC[C@@H]12
Activity: inactive

smiles: CC(=O)O[C@@H]1OC(=O)C2=CC[C@H]3C(C)(C)CCC[C@]3(C)[C@H]21
Activity: inactive

smiles: CC(=O)O[C@@H]1OC=C2CC[C@H]3C(C)(C)CCC[C@]3(C)[C@H]21
Activity: inactive

smiles: CO[C@@H]1O[C@H](O)[C@@]2(O)CC[C@H]3C(C)(C)CCC[C@]3(C)[C@@H]12
Activity: inactive

smiles: CC(=O)OC[C@H]1CC[C@H]2C(C)(C)CCC[C@]2(C)[C@H]1COC(C)=O
Activity: inactive

smiles: CO[C@@H]1OC[C@H]2CC[C@H]3C(C)(C)CCC[C@]3(C)[C@H]21
Activity: inactive

smiles: CC(=O)OC[C@H]1[C@@H](OC(C)=O)CC[C@H]2C(C)(C)CCC[C@]12C
Activity: inactive
